Test system: BRCA1 mutant human triple negative breast cancer cell line MDA-MB-436
Assay: Cell proliferation assay, MDA-MB-436
Conditions: MDA-MB-436, 192 h, read-out: IC50, inhibition of cell proliferation
endpoint-label: IC50

Tell me reported IC50 for `O=c1[nH]nc2c3c(cccc13)N=C(CN1Cc3ccccc3C1)N2` , tested with BRCA1 mutant human triple negative breast cancer cell line MDA-MB-436.
219 nM

---

System: P-gp
Experiment: in vitro
Settings: mouse, with verapamil (P-gp antagonist; concentration not stated)
endpoint-label: pIC50
Hey, just a heads up that pIC50 is the negative log base 10 of the concentration in molar.

Tell me reported pIC50 for `O=c1[nH]nc2c3c(cccc13)N=C(CN1Cc3ccccc3C1)N2` , tested with P-gp.
5.74
